Kindly state pKi for each of the entries shown.
Target: recombinant Mcl-1 (residues 172-327) (Homo sapiens (Human), UniProt Q07820)
Sequence (Q07820 172-327): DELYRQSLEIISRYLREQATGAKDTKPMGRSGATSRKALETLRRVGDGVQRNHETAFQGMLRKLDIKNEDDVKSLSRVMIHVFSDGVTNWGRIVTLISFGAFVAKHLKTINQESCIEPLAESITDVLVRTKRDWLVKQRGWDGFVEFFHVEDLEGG
Experiment: Bak peptide binding assay, fluorescence polarization anisotropy competition (FITC-Bak), Mcl-1
Conditions: Table 4; FITC-Bak peptide 10 nM, Mcl-1 14 nM; read-out: Ki Mcl-1
Give bare numbers, as −log10 of the molar value.

Can you share its pKi? I mean this compound: Cc1cc(OCCCc2c(C)n(CCC(=O)O)c3c(-c4c(C)nn(C)c4C)cccc23)cc(C)c1Cl [Example 76]
8.15

Please report pKi for every entry that follows.
1. Cc1cc(OCCCc2c(C)n(CCC(=O)O)c3cc(Cl)ccc23)cc(C)c1Cl [Example 44]
2. Cc1cc(OCCCc2c(C)n(Cc3cccc(C(=O)O)c3)c3c(-c4c(C)n[nH]c4C)cccc23)cc(C)c1Cl [Example 100]
3. Cc1cc(OCCCc2cn(CCC(=O)NS(C)(=O)=O)c3cc(Cl)ccc23)cc(C)c1Cl [Example 20]
4. Cc1cc(OCCCc2c(C)n(Cc3ccc(C(=O)O)o3)c3c(-c4c(C)n[nH]c4C)cccc23)cc(C)c1Cl [Example 99]

1: 6.77; 2: 8.00; 3: 6.44; 4: 7.96

====

Kindly state Ki for each of the entries shown.
Target: recombinant Mcl-1 (residues 172-327) (Homo sapiens (Human))
Assay: Bak peptide binding assay, fluorescence polarization anisotropy competition (FITC-Bak), Mcl-1
Settings: Table 3, binned ranges; FITC-Bak peptide 10 nM, Mcl-1 14 nM; read-out: Ki for inhibition of Mcl-1

Can you share its Ki? I mean this compound: Cc1cc(OCCCc2cn(CCC(=O)O)c3cc(Cl)ccc23)cc(C)c1Cl
101 to 299 nM

Please report Ki for every entry that follows.
1. Cc1cc(OCCCc2cn(CCC(=O)NS(C)(=O)=O)c3ccccc23)cc(C)c1Cl
2. Cc1cc(OCCCc2c(C)n(Cc3ccc(C(=O)O)cc3)c3c(-c4c(C)n[nH]c4C)cccc23)cc(C)c1Cl
3. Cc1cc(OCCn2cc(CC(=O)O)c3ccccc32)cc(C)c1Cl

1: 1000 to 9990 nM; 2: ≤ 100 nM; 3: 1000 to 9990 nM

====

Kindly state pKi for each of the entries shown.
Target: recombinant Mcl-1 (residues 172-327) (Homo sapiens (Human), UniProt Q07820)
Assay: Bak peptide binding assay, fluorescence polarization anisotropy competition (FITC-Bak), Mcl-1
Details: Table 3, binned ranges; FITC-Bak peptide 10 nM, Mcl-1 14 nM; read-out: Ki for inhibition of Mcl-1
pKi: −log10 of the molar value.

Some solved entries appear below for comparison.
Can you share its pKi? I mean this compound: Cc1cc(OCCCc2c(C(F)(F)F)n(Cc3ccc(C(=O)O)cc3)c3c(Br)cccc23)cc(C)c1Cl
6.52 to 7.00

Can you share its pKi? I mean this compound: Cc1cc(OCCCc2c(C)n(Cc3cccc(C(=O)O)c3)c3c(-c4c(C)nn(Cc5cccnc5)c4C)cccc23)cc(C)c1Cl
6.00 to 6.30

Can you share its pKi? I mean this compound: Cc1cc(OCCCc2c(C)n(CCC(=O)NS(=O)(=O)c3cccnc3)c3c(-c4c(C)nn(C)c4C)cccc23)cc(C)c1Cl
≥ 7.00

Please report pKi for every entry that follows.
1. Cc1cc(OCCCc2cn(CCC(=O)NS(=O)(=O)C3CC3)c3cc(Cl)ccc23)cc(C)c1Cl
2. Cc1cc(OCCCc2cn(CCC(=O)NS(=O)(=O)c3ccc(Oc4ccccc4)cc3)c3cc(Cl)ccc23)cc(C)c1Cl
3. Cc1cc(OCCCc2c(C)n(CC(=O)O)c3c(-c4cccn4C)cccc23)cc(C)c1Cl
4. O=C(O)Cc1cn(CCCOc2ccc3ccccc3c2)c2ccccc12
5. Cc1cc(OCCCc2c(C)n(CCC(=O)O)c3cc(Cl)ccc23)cc(C)c1Cl
6. Cc1cc(OCCCc2c(C)n(Cc3ccc(C(=O)O)o3)c3c(-c4c(C)n[nH]c4C)cccc23)cc(C)c1Cl

1: 6.30 to 6.52; 2: 6.30 to 6.52; 3: 6.52 to 7.00; 4: 4.30 to 5.00; 5: 6.52 to 7.00; 6: ≥ 7.00

====

Kindly state Ki for each of the entries shown.
Molecular target: recombinant Mcl-1 (residues 172-327) (Homo sapiens (Human), UniProt Q07820)
Test: Bak peptide binding assay, fluorescence polarization anisotropy competition (FITC-Bak), Mcl-1
Details: Table 3, binned ranges; FITC-Bak peptide 10 nM, Mcl-1 14 nM; read-out: Ki for inhibition of Mcl-1

Can you share its Ki? I mean this molecule: Cc1cc(OCCCc2c(C#N)n(CCC(=O)O)c3ccccc23)cc(C)c1Cl
501 to 999 nM

Can you share its Ki? I mean this molecule: Cc1cc(OCCCc2c(C)n(CCC(=O)O)c3c(-c4c(C)nn(C(C)C)c4C)cccc23)cc(C)c1Cl
≤ 100 nM

Can you share its Ki? I mean this molecule: Cc1cc(OCCCc2c(C)n(CCC(=O)O)c3c(-c4cccn4C)cccc23)cc(C)c1Cl
≤ 100 nM

Please report Ki for every entry that follows.
1. Cc1ccncc1-c1cccc2c(CCCOc3cc(C)c(Cl)c(C)c3)c(C)n(CCC(=O)O)c12
2. Cc1cc(OCCCc2c(C)n(CCC(=O)NS(C)(=O)=O)c3c(-c4cccn4C)cccc23)cc(C)c1Cl

1: ≤ 100 nM; 2: ≤ 100 nM

Please report Ki for every entry that follows.
1. Cc1cc(OCCCc2cn(CC(=O)O)c3ccccc23)cc(C)c1Cl
2. Cc1cc(OCCCc2c(C)n(Cc3cccc(C(=O)O)c3)c3c(-c4c(C)nn(Cc5ccccn5)c4C)cccc23)cc(C)c1Cl
3. Cc1cc(OCCCc2c(C)n(Cc3ccccc3C(=O)O)c3c(-c4c(C)n[nH]c4C)cccc23)cc(C)c1Cl
4. Cc1cc(OCCCc2c(C)n(CCC(=O)O)c3c(-c4c(C)nn(C)c4C)c(Cl)ccc23)cc(C)c1Cl
5. Cc1ccncc1-c1cccc2c(CCCOc3cc(C)c(Cl)c(C)c3)c(C)n(CCC(=O)NS(C)(=O)=O)c12
6. Cc1cc(OCCCc2cn(CCC(=O)O)c3c(-c4cccnc4)cccc23)cc(C)c1Cl

501 to 999 nM
≤ 100 nM
1000 to 9990 nM
≤ 100 nM
≤ 100 nM
501 to 999 nM

====

Biological target: recombinant Mcl-1 (residues 172-327) (Homo sapiens (Human), UniProt Q07820)
Test: Bak peptide binding assay, fluorescence polarization anisotropy competition (FITC-Bak), Mcl-1;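 note: displacement of labeled Bak peptide read by fluorescence anisotropy, 10-point threefold dilutions from 20 µM top dose in 5% DMSO, 90 min incubation at room temperature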
Conditions: Table 3, binned ranges; FITC-Bak peptide 10 nM, Mcl-1 14 nM; read-out: Ki for inhibition of Mcl-1
reported endpoint: Ki

Some solved entries appear below for comparison.
Ki of CCn1nc(C)c(-c2cccc3c(CCCOc4cc(C)c(Cl)c(C)c4)c(C)n(CCC(=O)NS(C)(=O)=O)c23)c1C [Example 86] on recombinant Mcl-1 (residues 172-327) (Homo sapiens (Human), UniProt Q07820)?
≤ 100 nM

Ki of Cc1cc(OCCCc2c(C)n(CCC(=O)O)c3c(-c4c(C)nn(CCN5CCOCC5)c4C)c(Cl)ccc23)cc(C)c1Cl [Example 113] on recombinant Mcl-1 (residues 172-327) (Homo sapiens (Human), UniProt Q07820)?
≤ 100 nM

Ki of Cc1cc(OCCCc2cn(C(C)CC(=O)O)c3ccccc23)cc(C)c1Cl (racemic) [Example 55] on recombinant Mcl-1 (residues 172-327) (Homo sapiens (Human), UniProt Q07820)?
501 to 999 nM

Ki of Cc1cc(OCCCc2c(C)n(CCC(=O)O)c3c(-c4c(C)nn(Cc5cccnc5)c4C)cccc23)cc(C)c1Cl [Example 133] on recombinant Mcl-1 (residues 172-327) (Homo sapiens (Human), UniProt Q07820)?
≤ 100 nM

Ki of Cc1cc(OCCCc2c(C)n(Cc3cccc(C(=O)O)c3)c3c(-c4c(C)nn(C)c4C)c(Cl)ccc23)cc(C)c1Cl [Example 102] on recombinant Mcl-1 (residues 172-327) (Homo sapiens (Human), UniProt Q07820)?
≤ 100 nM

Please report Ki for every entry that follows.
1. CCC(C(=O)O)n1cc(CCCOc2cc(C)c(Cl)c(C)c2)c2ccccc21 (racemic) [Example 52]
2. Cc1cc(OCCCc2c(C(F)(F)F)n(Cc3cccc(C(=O)O)c3)c3c(Br)cccc23)cc(C)c1Cl [Example 115]
3. Cc1cc(OCCCc2c(C)n(CCC(=O)O)c3c(-c4c(C)nn(CCN(C)C)c4C)cccc23)cc(C)c1Cl [Example 109]
4. Cc1cc(OCCCc2c(C)n(Cc3cccc(C(=O)NS(=O)(=O)c4ccccn4)c3)c3c(-c4c(C)nn(C)c4C)cccc23)cc(C)c1Cl [Example 126]
5. Cc1cc(OCCCc2c(C)n(Cc3ccc(C(=O)NS(=O)(=O)c4ccccn4)cc3)c3c(-c4c(C)nn(C)c4C)cccc23)cc(C)c1Cl [Example 132]
6. Cc1cc(OCCCc2cn(CCC(=O)NS(=O)(=O)Cc3ccccc3)c3cc(Cl)ccc23)cc(C)c1Cl [Example 38]

501 to 999 nM
101 to 299 nM
301 to 500 nM
≤ 100 nM
≤ 100 nM
301 to 500 nM

Please report Ki for every entry that follows.
1. CS(=O)(=O)NC(=O)CCn1cc(CCCOc2cccc3ccccc23)c2c(Cl)cccc21 [Example 23]
2. Cc1cc(OCCCc2c(C)n(CCC(=O)O)c3c(-c4c(C)nn(CCN5CCCC5)c4C)cccc23)cc(C)c1Cl [Example 80]
3. Cc1cnccc1-c1cccc2c(CCCOc3cc(C)c(Cl)c(C)c3)c(C)n(CCC(=O)O)c12 [Example 72]

1: 1000 to 9990 nM; 2: ≤ 100 nM; 3: ≤ 100 nM
